- ASSAYED SYSTEM: USP8 (Homo sapiens, UniProt P40818)
- Sequence (P40818 whole entry): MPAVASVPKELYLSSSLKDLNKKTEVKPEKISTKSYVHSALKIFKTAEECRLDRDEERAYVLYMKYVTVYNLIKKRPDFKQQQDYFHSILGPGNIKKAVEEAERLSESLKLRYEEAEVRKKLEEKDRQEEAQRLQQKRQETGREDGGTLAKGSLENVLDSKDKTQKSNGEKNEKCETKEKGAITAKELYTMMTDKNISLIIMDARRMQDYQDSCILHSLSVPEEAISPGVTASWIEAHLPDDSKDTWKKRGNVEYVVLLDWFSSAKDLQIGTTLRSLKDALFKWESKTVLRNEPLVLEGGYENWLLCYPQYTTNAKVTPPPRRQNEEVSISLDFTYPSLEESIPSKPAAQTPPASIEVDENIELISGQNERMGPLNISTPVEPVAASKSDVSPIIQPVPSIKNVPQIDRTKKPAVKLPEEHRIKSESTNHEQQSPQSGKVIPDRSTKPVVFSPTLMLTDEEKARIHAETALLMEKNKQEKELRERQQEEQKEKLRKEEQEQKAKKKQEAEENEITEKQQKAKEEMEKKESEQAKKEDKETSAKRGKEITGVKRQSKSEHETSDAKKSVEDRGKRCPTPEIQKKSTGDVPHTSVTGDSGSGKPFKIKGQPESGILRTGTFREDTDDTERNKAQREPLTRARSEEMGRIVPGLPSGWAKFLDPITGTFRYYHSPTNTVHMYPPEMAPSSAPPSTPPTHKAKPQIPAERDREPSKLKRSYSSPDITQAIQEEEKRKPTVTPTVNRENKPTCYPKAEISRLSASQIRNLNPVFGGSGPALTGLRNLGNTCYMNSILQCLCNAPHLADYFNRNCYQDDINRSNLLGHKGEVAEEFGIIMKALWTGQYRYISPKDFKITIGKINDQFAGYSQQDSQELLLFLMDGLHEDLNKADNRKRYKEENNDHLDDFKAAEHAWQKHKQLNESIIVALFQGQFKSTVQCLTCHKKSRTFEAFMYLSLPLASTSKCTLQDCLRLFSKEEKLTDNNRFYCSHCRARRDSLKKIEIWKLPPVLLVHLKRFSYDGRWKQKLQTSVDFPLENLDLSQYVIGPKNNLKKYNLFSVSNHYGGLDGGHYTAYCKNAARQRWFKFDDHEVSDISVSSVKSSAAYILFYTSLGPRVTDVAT
RECORDED METRIC: IC50

Example molecules with recorded IC50:
1) N#Cc1nc2c(nc1C#N)-c1ccc(O)cc1C2=O [Example 17j]    > 100 µM
2) N#Cc1nc2c(nc1C#N)C(=O)c1ccccc1C2=O [Example 20]    > 100 µM

# next molecule below
Q: Request - read-out IC50 | tested on USP8 (Homo sapiens, UniProt P40818) | molecule CN(C)c1nc2c(nc1C#N)C(=O)c1ccccc1-2 [Example 4]
A: > 100 µM

---

Protein target, amino acids: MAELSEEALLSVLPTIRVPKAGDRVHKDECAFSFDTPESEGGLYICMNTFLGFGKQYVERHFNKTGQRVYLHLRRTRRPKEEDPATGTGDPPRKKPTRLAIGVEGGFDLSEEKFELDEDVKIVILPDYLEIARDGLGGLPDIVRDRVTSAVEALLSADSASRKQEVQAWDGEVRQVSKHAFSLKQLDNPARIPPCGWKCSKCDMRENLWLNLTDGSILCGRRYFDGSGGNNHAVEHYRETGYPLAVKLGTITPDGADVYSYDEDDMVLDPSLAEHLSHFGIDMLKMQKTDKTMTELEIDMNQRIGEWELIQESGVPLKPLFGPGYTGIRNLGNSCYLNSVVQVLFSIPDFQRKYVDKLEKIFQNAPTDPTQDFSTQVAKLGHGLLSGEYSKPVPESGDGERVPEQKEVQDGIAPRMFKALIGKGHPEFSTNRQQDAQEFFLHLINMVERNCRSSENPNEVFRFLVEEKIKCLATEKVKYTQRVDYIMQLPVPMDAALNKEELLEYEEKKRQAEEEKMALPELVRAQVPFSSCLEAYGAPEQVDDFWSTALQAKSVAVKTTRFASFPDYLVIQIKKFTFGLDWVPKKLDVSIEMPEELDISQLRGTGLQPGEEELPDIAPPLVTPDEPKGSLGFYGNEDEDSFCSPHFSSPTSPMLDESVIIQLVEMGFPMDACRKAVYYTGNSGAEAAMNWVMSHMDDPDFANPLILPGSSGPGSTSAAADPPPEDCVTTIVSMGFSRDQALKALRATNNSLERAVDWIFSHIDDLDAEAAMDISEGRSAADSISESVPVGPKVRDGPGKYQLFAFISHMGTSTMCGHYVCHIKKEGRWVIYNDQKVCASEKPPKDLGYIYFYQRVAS
// IC50 lookup, one value per entry

Example compounds with recorded IC50:
1) N#Cc1nc2c(nc1C#N)-c1ccccc1C2=NOCc1ccccc1 (mixture of isomers) [Example 13C]    > 100 µM
2) COCCOc1nc2c(nc1C#N)C(=O)c1ccccc1-2 [Example 5]    > 100 µM

# next compound below
Q: Could you tell me which IC50 is on file for N#Cc1nc2c(nc1Cl)-c1ccccc1C2=O [Example 9] ?
A: > 100 µM
